procedure-text: Stability post-storage at 40° C./75% RH assessed by XRPD
Type: physicochemical
conditions-used: form change assessed by XRPD
endpoint: Stability post-storage at 40° C./75% RH

Here's what some known entries look like.
{"compound": "COc1ccc(-c2c(-c3ccc(C#N)c(F)c3)nc(N3CCC(N)CC3)n(C)c2=O)cc1F [MA 2]", "Stability post-storage at 40° C./75% RH": "Pattern change"}
{"compound": "COc1ccc(-c2c(-c3ccc(C#N)c(F)c3)nc(N3CCC(N)CC3)n(C)c2=O)cc1F [BSA 1]", "Stability post-storage at 40° C./75% RH": "No form change"}
{"compound": "COc1ccc(-c2c(-c3ccc(C#N)c(F)c3)nc(N3CCC(N)CC3)n(C)c2=O)cc1F [MLNA 2]", "Stability post-storage at 40° C./75% RH": "Pattern change"}
{"compound": "COc1ccc(-c2c(-c3ccc(C#N)c(F)c3)nc(N3CCC(N)CC3)n(C)c2=O)cc1F [MSA 1]", "Stability post-storage at 40° C./75% RH": "No form change"}
{"compound": "COc1ccc(-c2c(-c3ccc(C#N)c(F)c3)nc(N3CCC(N)CC3)n(C)c2=O)cc1F [FUA 1]", "Stability post-storage at 40° C./75% RH": "Pattern change"}
{"compound": "COc1ccc(-c2c(-c3ccc(C#N)c(F)c3)nc(N3CCC(N)CC3)n(C)c2=O)cc1F [CA 2]", "Stability post-storage at 40° C./75% RH": "No form change"}

Stability post-storage at 40° C./75% RH for COc1ccc(-c2c(-c3ccc(C#N)c(F)c3)nc(N3CCC(N)CC3)n(C)c2=O)cc1F [CA 1] ?
Pattern change

Stability post-storage at 40° C./75% RH for COc1ccc(-c2c(-c3ccc(C#N)c(F)c3)nc(N3CCC(N)CC3)n(C)c2=O)cc1F.Cl [HCL 1] ?
Extra peaks observed

Stability post-storage at 40° C./75% RH for COc1ccc(-c2c(-c3ccc(C#N)c(F)c3)nc(N3CCC(N)CC3)n(C)c2=O)cc1F [MLNA 1] ?
Pattern change

Stability post-storage at 40° C./75% RH for COc1ccc(-c2c(-c3ccc(C#N)c(F)c3)nc(N3CCC(N)CC3)n(C)c2=O)cc1F [FUA 3] ?
Pattern change

Stability post-storage at 40° C./75% RH for COc1ccc(-c2c(-c3ccc(C#N)c(F)c3)nc(N3CCC(N)CC3)n(C)c2=O)cc1F [PHOA 1] ?
No form change

Stability post-storage at 40° C./75% RH for COc1ccc(-c2c(-c3ccc(C#N)c(F)c3)nc(N3CCC(N)CC3)n(C)c2=O)cc1F [MSA 2] ?
Extra peaks observed

Stability post-storage at 40° C./75% RH for COc1ccc(-c2c(-c3ccc(C#N)c(F)c3)nc(N3CCC(N)CC3)n(C)c2=O)cc1F [TAR 1] ?
Pattern change

* * *

procedure-text: Thermodynamic solubility in FeSSIF
Type: physicochemical
conditions-used: fed state simulated intestinal fluid (FeSSIF), 25 °C, pH 4.9, fessif, thermodynamic from solid, equilibrated at 25° C. for 24 hours
endpoint: solubility at 24 h
A bare number is not enough; add the unit after it.

solubility at 24 h for COc1ccc(-c2c(-c3ccc(C#N)c(F)c3)nc(N3CCC(N)CC3)n(C)c2=O)cc1F.Cl [HCL 1] ?
740 µg/mL
